- System: K. pneumoniae
- runDescription: AK assay 384-well format, Prestwick library screening
- Type: cell-based, Klebsiella pneumoniae
- experimentalConditions: Klebsiella pneumoniae, 3 h; planktonic K. pneumoniae; 50 μM final drug concentration; 384-well; cutoff for positive-scoring molecules 3-fold increase; read-out: AK-based Prestwick Library Screening Results: K. pneumoniae (increase in extracellular AK activity)
Counter-ions that a name gives are not always drawn.
Measured fold induction at 50 µM by item
recordedEndpoint: fold induction at 50 µM

compound="CCN(CC)CCOC(=O)C(c1ccccc1)c1ccccc1 [Adiphenine hydrochloride]" testvalue=1
compound="O=c1[nH]cnc2c1ncn2[C@H]1CC[C@@H](CO)O1 [Didanosine]" testvalue=0.9
compound="COC(=O)Nc1nc2ccc(C(=O)c3ccccc3)cc2[nH]1 [Mebendazole]" testvalue=0.8
compound="CCc1cccc2c3c([nH]c12)C(CC)(CC(=O)O)OCC3 (stereo not shown) [Etodolac]" testvalue=1.3
compound="Clc1ccc(CCC(Cn2ccnc2)Sc2c(Cl)cccc2Cl)cc1 (stereo not shown) [Butoconazole nitrate]" testvalue=0.7
compound="CCCCOc1cc(C(=O)OCCN(CC)CC)ccc1N [Benoxinate hydrochloride]" testvalue=1
compound="O=C1CN(/N=C/c2ccc(-c3ccc([N+](=O)[O-])cc3)o2)C(O)=N1 [Dantrolene sodium salt]" testvalue=0.9
compound="CCC[C@@H]1C[C@@H](C(=O)N[C@@H]([C@H]2O[C@H](SC)[C@H](O)[C@@H](O)[C@H]2O)[C@@H](C)O)N(C)C1 [Lincomycin hydrochloride]" testvalue=0.9
compound="CC1COc2c(N3CCN(C)CC3)c(F)cc3c(=O)c(C(=O)O)cn1c23 (stereo not shown) [Ofloxacin]" testvalue=1
compound="COc1ccc(CCN2CCC(Nc3nc4ccccc4n3Cc3ccc(F)cc3)CC2)cc1 [Astemizole]" testvalue=1.1
compound="CN(C)CCn1nnnc1SCC1=C(C(=O)O)N2C(=O)[C@@H](NC(=O)Cc3csc(N)n3)[C@H]2SC1 [Cefotiam hydrochloride]" testvalue=7.8
compound="COc1ccc([C@@H]2Sc3ccccc3N(CCN(C)C)C(=O)[C@@H]2OC(C)=O)cc1 [Diltiazem hydrochloride]" testvalue=1
compound="C[C@]12C=CC(=O)C=C1CC[C@@H]1[C@@H]2C(=O)C[C@@]2(C)[C@H]1CC[C@]2(O)C(=O)CO [Prednisone]" testvalue=0.9
compound="CO[C@]12C[C@@H](COC(=O)c3cncc(Br)c3)CN(C)[C@@H]1Cc1cn(C)c3cccc2c13 [Nicergoline]" testvalue=1
compound="COc1cc2nc(N(C)CCCNC(=O)C3CCCO3)nc(N)c2cc1OC (stereo not shown) [Alfuzosin hydrochloride]" testvalue=0.4
compound="Cc1ccc(N(CC2=NCCN2)c2cccc(O)c2)cc1 [Phentolamine hydrochloride]" testvalue=1.1
